B1: TPR t1 (parent)
chain: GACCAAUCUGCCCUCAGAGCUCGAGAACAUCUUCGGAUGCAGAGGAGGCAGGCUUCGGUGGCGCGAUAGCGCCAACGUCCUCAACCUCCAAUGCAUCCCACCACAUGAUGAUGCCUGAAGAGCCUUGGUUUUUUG

variants of: B1; experiment: polymerase ribozyme fitness, log enrichment relative to wild type (log ratio); higher = more active; in vitro selection for triplet polymerase activity
Outcome label depends on polymerase ribozyme fitness (log ratio) relative to -3: at/above gives Condition met, below gives Condition not met.

Worked set:
Does C4U C11G C49U G51A C72U C80U C94G have a reported polymerase ribozyme fitness (log ratio) of at least -3?
Condition met

polymerase ribozyme fitness (log ratio) >= -3 for C8A G36U C76A U131C ?
Condition met

Determine whether this variant has polymerase ribozyme fitness (log ratio) no lower than -3: U54A C56G G61A
Condition met

Item G36U C86G with polymerase ribozyme fitness (log ratio) of -3 or above?
Condition met

Hi, just wondering whether A18C C114U shows polymerase ribozyme fitness (log ratio) of -3 or higher.
Condition not met

# bool: polymerase ribozyme fitness (log ratio) of C34G G51U C104U >= -3
Condition not met

Record A74C A105C ; criterion: polymerase ribozyme fitness (log ratio) no lower than -3. Met?
Condition met

# bool: polymerase ribozyme fitness (log ratio) of C40A U96G >= -3
Condition met

***
Record G10C C15A ; criterion: polymerase ribozyme fitness (log ratio) no lower than -3. Met?
Condition met

Is polymerase ribozyme fitness (log ratio) for C80U G120U at or above -3?
Condition met

Hello, I need to know if C11G C53U C80U C88A U112C has measured polymerase ribozyme fitness (log ratio) not below -3. Thanks!
Condition met

Exam item: decide whether the reported polymerase ribozyme fitness (log ratio) for C53G G107U C123G is at least -3.
Condition met

Threshold query (polymerase ribozyme fitness (log ratio) >= -3) on C8A C20U G113U A118U
Condition met
